Measured EC50 of individual entries
tested_on: mRORγ LBD (Mus musculus)
Construct: made in house; host or cells: Sf9 insect cells, baculovirus; cleared lysate used directly
Sequence (P51450 251-516): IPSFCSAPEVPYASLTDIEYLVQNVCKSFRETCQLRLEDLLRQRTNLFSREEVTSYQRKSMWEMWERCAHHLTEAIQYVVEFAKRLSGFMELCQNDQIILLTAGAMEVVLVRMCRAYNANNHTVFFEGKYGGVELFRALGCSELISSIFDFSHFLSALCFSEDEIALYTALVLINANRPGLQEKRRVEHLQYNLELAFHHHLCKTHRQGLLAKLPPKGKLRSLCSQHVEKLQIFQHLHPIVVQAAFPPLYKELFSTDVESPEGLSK
assay_info: Biochemical assay, coregulatory peptide recruitment to GST-RORγ LBD (FRET)
test_context: Table 4A; peptide K1, no agonist present; medians of two or more assays; unit inferred; read-out: EC50 Biochemical
readout_kind: EC50 (nM)

>>> print(df.to_string())
                                   molecule                 tested_on  readout_number
0  CC(=O)O[C@H]1CC[C@@]2(C)C(CC[C@]3(C)C2C(=O)C=C2C4[C@@H](C)[C@H](C)CC[C@]4(C(=O)O)CC[C@]23C)C1(C)C (stereo in doubt)  mRORγ LBD (Mus musculus)            1200
1  CCn1c(CNc2cccc(Cl)c2)nnc1SCC(=O)Nc1cccc2ccccc12  mRORγ LBD (Mus musculus)            1340
2  CCn1c(CNc2cccc(C(F)(F)F)c2)nnc1SCC(=O)Nc1cccc2ccccc12  mRORγ LBD (Mus musculus)            1330
